Here, each record is paired with measured pIC50 data.
Tested on: cultured human mast cells
Test: Degranulation inhibition test using cultured human mast cells (IgE cross-linking, β-Hexosaminidase release)
Type: cell-based
Conditions: Mast cell; cultured human mast cells, anti-hIgE stimulation, β-Hexosaminidase index, average; read-out: human degranulation ave. IC50
pIC50: −log10 of the molar value.

Worked cases, answers included:
Cc1ccnc(Nc2cccc(-c3sc([C@H](C)NC(=O)CCC(=O)O)nc3C)n2)c1 [Compound A-116] | < 6.00
Cc1ccnc(Nc2cccc(-c3cnc(CN4CCN(C(=O)CO)CC4)s3)n2)c1 [Compound A-246] | 6.00 to 7.00
Cc1ccnc(Nc2cccc(-c3cnc(C4CCN(C(=O)N5CCC(O)CC5)CC4)s3)n2)c1 [Compound A-251] | 6.00 to 7.00
Cc1ccnc(Nc2cccc(-c3cnc(CNS(C)(=O)=O)s3)n2)c1 [Compound A-200] | 6.00 to 7.00
Cc1ccnc(Nc2cccc(-c3cnc([C@H]4CC[C@H](C(=O)N5CCC[C@H]5CO)CC4)s3)n2)c1 [Compound A-285] | 6.00 to 7.00
Cc1ccnc(Nc2cccc(-c3cnc(C4CCN(CC(=O)O)CC4)s3)n2)c1 [Compound A-185] | < 6.00

API: the following record is the query input.
*Q* Retrieve pIC50 measured for O=C1CC[C@@H](c2ncc(-c3cccc(Nc4cc(CCO)ccn4)n3)s2)N1 [Compound A-330] and print it.
*A* 6.00 to 7.00

====

Biological target: GST-Syk Full Protein (human) (Homo sapiens)
Test: Syk kinase inhibition test (HTRF method)
Type: biochemical
Details: HTRF, 100 μM ATP, 30 min room temperature, average; read-out: sykHTRF ave IC50
PARAMETER_MEASURED: IC50

*Q* Answer with the recorded IC50 of Cc1ccnc(Nc2cccc(-c3cnc([C@H](C)NC(=O)N(C)C)s3)n2)c1 only.
*A* 0.1 to 1 µM

*Q* Indicate its recorded IC50; the compound in question is CC(=O)N1CCC(CCc2ncc(-c3cccc(Nc4cc(C)ccn4)n3)s2)CC1
*A* 0.1 to 1 µM

*Q* Fill in reported IC50 for this entry: C[C@H](O)c1ncc(-c2cccc(Nc3cc(C4(C)OCCO4)ccn3)n2)s1
*A* < 0.1 µM

*Q* Please look at this compound and report its IC50: Cc1ccnc(Nc2cccc(-c3cnc(C4CCCC(C(=O)N5C[C@@H](O)[C@@H](O)C5)C4)s3)n2)c1 (stereo partly shown)
*A* 0.1 to 1 µM

====

System: cultured human mast cells
Assay: Degranulation inhibition test using cultured human mast cells (IgE cross-linking, β-Hexosaminidase release)
Assay type: cell-based
Settings: Mast cell; cultured human mast cells, anti-hIgE stimulation, β-Hexosaminidase index, average; read-out: human degranulation ave. IC50
pIC50: −log10 of the molar value.
PARAMETER_MEASURED: pIC50

Some solved cases for reference:
Cc1ccnc(Nc2cccc(-c3cnc([C@H]4CC[C@H](C(=O)NCCN5CCOCC5)CC4)s3)n2)c1 | 6.00 to 7.00
Cc1ccnc(Nc2cccc(-c3cnc(COCC(=O)N4C[C@@H](O)[C@@H](O)C4)s3)n2)c1 | < 6.00

*Q* Check the records and state pIC50 for CC(=O)Nc1ncc(-c2cccc(Nc3cc(C)ccn3)n2)s1
*A* 6.00 to 7.00

*Q* Could you please provide reported pIC50 for CCOC(=O)CC(C)(C)NC(=O)c1ncc(-c2cccc(Nc3cc(C)ccn3)n2)s1 ? Thanks!
*A* < 6.00
